GI50 values for the compounds below.
system: SK-MEL-28; assay: Growth inhibition of human SK-MEL-28 cells incubated for 48 hrs by sulforhodamine B assay; format: functional; settings: SK-MEL-28, 48 h, read-out: GI50
Measured parameter: GI50 (nM)

>  <Compound structure>
Fc1ccc(-c2nc(Nc3ccc(-c4nc5ccccc5[nH]4)cc3)nc(N3CCOCC3)n2)cc1

>  <Experimental system>
SK-MEL-28

>  <Measured parameter>
GI50

>  <Measured number>
1800

$$$$
>  <Compound structure>
c1ccc(-c2nc(Nc3ccc(-c4nc5ccccc5[nH]4)cc3)nc(N3CCOCC3)n2)cc1

>  <Experimental system>
SK-MEL-28

>  <Measured parameter>
GI50

>  <Measured number>
1560

$$$$
>  <Compound structure>
Clc1ccc(-c2nc(Nc3ccc(-c4nc5ccccc5[nH]4)cc3)nc(N3CCOCC3)n2)cc1

>  <Experimental system>
SK-MEL-28

>  <Measured parameter>
GI50

>  <Measured number>
1600

$$$$
>  <Compound structure>
c1ccc2[nH]c(-c3ccc(Nc4nc(N5CCCCC5)nc(N5CCOCC5)n4)cc3)nc2c1

>  <Experimental system>
SK-MEL-28

>  <Measured parameter>
GI50

>  <Measured number>
1800

$$$$
